All values here come from patent US20220226337A1.

biological target: α4β7 integrin interaction with MadCAM-1 (RPMI8866 cells) (Homo sapiens, UniProt P13612+P26010); construct: α4β7 integrin expressing cells; endogenous in cells; assay: α4β7 Integrin Cell Capture Assay; details: capture of α4β7 integrin expressing RPMI8866 cells on recombinant MadCAM-1 extracellular domain-coated plate; 0.5 mM MnCl2
MEASURED_ENDPOINT: EC50 (nM)

- Cc1cc(N2CCOC[C@@H]2C(F)(F)F)cc(F)c1C(=O)N[C@@H](Cc1ccc(-c2c(C)nc(C)n(C)c2=O)c2c1CCCO2)C(=O)O (atropisomer, axis not shown) [Example 120]: 0.089

[1] CC[C@@H](Nc1cc(F)c(C(=O)N[C@@H](Cc2ccc(-c3c(OC)cc(C)n(C)c3=O)c3c2COC3)C(=O)O)c(F)c1)C(F)(F)F
[2] O=C(N[C@@H](Cc1ccc(-c2c(Cl)cc(F)cc2Cl)c2c1[C@@H]1C[C@@H]1CO2)C(=O)O)c1c(F)cccc1F (single isomer, unassigned)
Identify the item whose EC50 is the smaller number: 1 or 2 Refer to your chosen entry by its label in the reply. 1

====

Target: α4β7 integrin interaction with MadCAM-1 (RPMI8866 cells) (Homo sapiens, UniProt P13612+P26010)
Construct: α4β7 integrin expressing cells; endogenous in cells
Sequence (P13612 34-1032): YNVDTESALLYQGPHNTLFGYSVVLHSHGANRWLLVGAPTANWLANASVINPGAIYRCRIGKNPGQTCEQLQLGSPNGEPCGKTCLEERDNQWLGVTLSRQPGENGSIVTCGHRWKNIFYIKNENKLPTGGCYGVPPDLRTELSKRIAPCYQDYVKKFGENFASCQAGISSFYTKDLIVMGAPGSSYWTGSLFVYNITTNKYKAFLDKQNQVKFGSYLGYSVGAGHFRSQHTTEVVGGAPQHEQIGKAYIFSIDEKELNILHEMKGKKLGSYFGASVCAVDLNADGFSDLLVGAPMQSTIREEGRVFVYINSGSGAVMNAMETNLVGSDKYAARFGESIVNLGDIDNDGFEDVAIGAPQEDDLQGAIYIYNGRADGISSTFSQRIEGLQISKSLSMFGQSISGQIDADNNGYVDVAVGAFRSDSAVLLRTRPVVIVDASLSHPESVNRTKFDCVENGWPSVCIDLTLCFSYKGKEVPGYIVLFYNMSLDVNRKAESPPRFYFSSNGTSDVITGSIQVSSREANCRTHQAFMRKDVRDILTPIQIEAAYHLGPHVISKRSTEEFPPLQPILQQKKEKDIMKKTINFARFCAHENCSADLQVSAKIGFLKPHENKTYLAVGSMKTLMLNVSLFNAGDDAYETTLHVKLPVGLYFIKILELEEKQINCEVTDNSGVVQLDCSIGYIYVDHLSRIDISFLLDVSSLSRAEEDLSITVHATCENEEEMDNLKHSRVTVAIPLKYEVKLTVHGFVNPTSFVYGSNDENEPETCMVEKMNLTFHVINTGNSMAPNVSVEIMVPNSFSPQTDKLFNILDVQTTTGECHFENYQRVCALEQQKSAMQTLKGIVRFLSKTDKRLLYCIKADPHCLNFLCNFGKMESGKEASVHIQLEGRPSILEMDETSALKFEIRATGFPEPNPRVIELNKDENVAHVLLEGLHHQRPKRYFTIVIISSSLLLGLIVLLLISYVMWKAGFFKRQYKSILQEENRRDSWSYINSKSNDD
Sequence (P26010 20-798): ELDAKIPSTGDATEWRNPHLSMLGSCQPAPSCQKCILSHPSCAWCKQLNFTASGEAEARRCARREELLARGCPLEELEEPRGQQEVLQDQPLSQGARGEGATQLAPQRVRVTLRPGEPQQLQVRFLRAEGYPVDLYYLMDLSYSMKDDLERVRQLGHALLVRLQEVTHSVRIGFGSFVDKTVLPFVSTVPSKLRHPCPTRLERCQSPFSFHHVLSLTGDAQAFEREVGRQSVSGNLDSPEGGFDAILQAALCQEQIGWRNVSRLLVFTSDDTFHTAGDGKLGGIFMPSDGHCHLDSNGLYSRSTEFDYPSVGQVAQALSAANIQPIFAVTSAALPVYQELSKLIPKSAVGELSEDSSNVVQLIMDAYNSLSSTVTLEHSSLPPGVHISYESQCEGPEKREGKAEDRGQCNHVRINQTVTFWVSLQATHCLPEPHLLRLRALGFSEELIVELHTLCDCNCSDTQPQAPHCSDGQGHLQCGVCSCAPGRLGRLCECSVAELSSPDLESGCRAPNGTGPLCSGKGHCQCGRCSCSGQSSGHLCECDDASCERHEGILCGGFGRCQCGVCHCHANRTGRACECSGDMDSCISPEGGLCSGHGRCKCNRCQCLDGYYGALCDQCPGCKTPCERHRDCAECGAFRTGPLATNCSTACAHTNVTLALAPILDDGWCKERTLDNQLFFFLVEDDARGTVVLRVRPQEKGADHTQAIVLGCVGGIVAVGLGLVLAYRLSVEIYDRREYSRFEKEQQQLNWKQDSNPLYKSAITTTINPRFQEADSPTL
Assay: α4β7 Integrin Cell Capture Assay
Conditions: capture of α4β7 integrin expressing RPMI8866 cells on recombinant MadCAM-1 extracellular domain-coated plate; 0.5 mM MnCl2
pEC50: −log10 of the molar value.
MEASURED_ENDPOINT: pEC50

Previously resolved entries follow.
- Cc1c(-c2ccc(C[C@H](NC(=O)c3c(Cl)cccc3Cl)C(=O)O)c3c2OCCC3)c(=O)n(C)c2ccccc12 (single isomer, unassigned) [Example 62]: 8.48
- Cc1c(-c2ccc(C[C@H](NC(=O)c3c(F)cccc3F)C(=O)O)c3c2OCCC3)c(=O)n(C)c2ccccc12 (single isomer, unassigned) [Example 59]: 8.82
- O=C(N[C@@H](Cc1ccc(-c2cccc3c2OCCC3)c2c1CCCO2)C(=O)O)c1c(F)cccc1F [Example 66]: 6.92
- C[C@@H](Nc1cc(F)c(C(=O)N[C@@H](Cc2ccc(-c3c(Cl)cc(F)cc3Cl)c3c2CCCO3)C(=O)O)c(F)c1)C(F)(F)F [Example 50]: 7.36
- COc1cc(C)n(C)c(=O)c1-c1ccc(C[C@H](NC(=O)c2c(F)cc(N3CCOC[C@@H]3C(F)(F)F)cc2F)C(=O)O)c2c1OCCC2 [Example 46]: 9.60
- Cc1cc(C(F)(F)F)c(-c2ccc(C[C@H](NC(=O)c3c(F)cc(N[C@H](C)C(F)(F)F)cc3F)C(=O)O)c3c2OCCC3)c(=O)n1C (single isomer, unassigned) [Example 42]: 8.85
- Cn1cc(-c2ccc(C[C@H](NC(=O)c3c(F)cc(N[C@H](c4ccccc4)C(F)(F)F)cc3F)C(=O)O)c3c2OCCC3)c(=O)n(C)c1=O [Example 85]: 9.28
- Cc1cc(C)n(C)c(=O)c1-c1ccc(C[C@H](NC(=O)c2c(F)cc(N3CCOC[C@@H]3C(F)(F)F)cc2Cl)C(=O)O)c2c1OCCC2 [Example 159]: 9.65

[P] Cc1cccc(F)c1C(=O)N[C@@H](Cc1ccc(-c2c(Cl)cc(F)cc2Cl)c2c1OCCO2)C(=O)O [Example 7]
[Q] CCc1nc(-c2ccc(C[C@H](NC(=O)c3c(C)cccc3F)C(=O)O)c3c2OCCO3)c(=O)n(C)c1CC [Example 180]
[R] CC[C@@H](Nc1cc(F)c(C(=O)N[C@@H](Cc2ccc(-c3cc4ccccc4n(C)c3=O)c3c2CCCO3)C(=O)O)c(F)c1)C(F)(F)F [Example 31]
[S] COc1cc(C#Cc2ccc(OC(F)(F)F)cc2)cc(OC)c1-c1ccc(C[C@H](NC(=O)c2c(Cl)cccc2Cl)C(=O)O)c2c1OCCC2 [Example 93]
Exam item: list the entries in increasing order of pEC50. Note for the reader: the ranking is given by listing the labels in the order requested. S, P, R, Q
(S: 6.31, P: 7.42, R: 8.05, Q: 8.30)
